Test: Oral bioavailability and half-life in fasted adult beagles
Settings: beagle, dog, in vivo; fasted adult beagles
assayReadout: half-life (min)
Numbers only, in min.

// field: half-life; key: NC(=O)c1ncn([C@@H]2O[C@H](CO)[C@@H](O)[C@H]2O)c1N [Compound No. 1, reference compound] ; value = 21

* * *

Test system: coronary endothelial cells
Assay: Inhibition of adenosine utilization in cell culture
Format: cell-based
Conditions: Endothelial cell, read-out: Inhibition of Adenosine Utilization (%)
Please go through the items and note down their inhibition at 5 µM.
One number for each entry, in %.

Worked cases, answers included:
compoundStructureString	resultUnit	dataValue
C[C@H]1O[C@@H](n2cnc(C(=O)NCc3ccc(Cl)cc3)c2N)[C@H](O)[C@@H]1O	%	37
C[C@@H](NC(=O)c1ncn([C@@H]2O[C@H](CO)[C@@H](O)[C@H]2O)c1N)c1ccc([N+](=O)[O-])cc1	%	30
Nc1c(C(=O)NCc2ccc(Cl)cc2Cl)ncn1[C@@H]1O[C@H](CO)[C@@H](O)[C@H]1O	%	21
Nc1c(C(=O)SCc2ccc([N+](=O)[O-])cc2)ncn1[C@@H]1O[C@H](CO)[C@@H](O)[C@H]1O	%	17

Alright, here's another molecule for you.
// field: inhibition at 5 µM; key: COc1ccc(CNC(=O)c2ncn([C@@H]3O[C@H](CO)[C@@H](O)[C@H]3O)c2N)cc1 ; value = 7
